Where these numbers come from: paper PMC5344956

Below, each entry is listed with its recorded % Distribution in plasma.
Assay Text: Metabolite profiling of plasma (HPLC-radiochromatography)
Type: in vivo, human
Assay Setup: 36 h pooled plasma, % of TRA

Which value of % Distribution in plasma has been reported for Cc1ccc(C(=O)O)cc1C#Cc1cnc2cccnn12 [M14] in the records?
2.4%

Which value of % Distribution in plasma has been reported for Cc1ccc(C(=O)Nc2ccc(C(=O)O)c(C(F)(F)F)c2)cc1C#Cc1cnc2cccnn12 [M23] in the records?
3.9%

Which value of % Distribution in plasma has been reported for Cc1ccc(C(=O)Nc2ccc(CN3CCN(C)CC3)c(C(F)(F)F)c2)cc1C#Cc1cnc2cccnn12.Cl [Ponatinib] in the records?
4.2%

---

Assay Text: Plasma pharmacokinetics of TRA, ponatinib and metabolites after a single oral 45-mg [14C]ponatinib dose
Assay Setup: male, human, plasma, po, 45 mg
Parameter: Cmax
Remember to put the unit after the number in your answer.

>>> observed("Cc1ccc(C(=O)Nc2ccc(CN3CCNCC3)c(C(F)(F)F)c2)cc1C#Cc1cnc2cccnn12 [M42]")
"107 nM"

Now consider a different compound.
Which value of Cmax has been reported for Cc1ccc(C(=O)O)cc1C#Cc1cnc2cccnn12 [M14] in the records?
5 nM

---

Assay Text: Plasma pharmacokinetics of TRA, ponatinib and metabolites after a single oral 45-mg [14C]ponatinib dose
Assay Setup: male, human, plasma, po, 45 mg
Below, each entry is listed with its recorded AUC(0-inf).
Remember to put the unit after the number in your answer.

>>> observed("Cc1ccc(C(=O)Nc2ccc(CN3CCNCC3)c(C(F)(F)F)c2)cc1C#Cc1cnc2cccnn12")
"1.8 µM·h"

Now consider a different compound.
Which value of AUC(0-inf) has been reported for Cc1ccc(C(=O)O)cc1C#Cc1cnc2cccnn12 in the records?
0.181 µM·h

---

Below, each entry is listed with its recorded % Distribution in plasma.
Assay Text: Metabolite profiling of plasma (HPLC-radiochromatography)
Assay type: in vivo, human
Assay Setup: 48 h pooled plasma, % of TRA
Dear colleague, please return just the value in %, with no unit written.

>>> observed("Cc1ccc(C(=O)Nc2ccc(CN3CCN(C)CC3)c(C(F)(F)F)c2)cc1C#Cc1cnc2cccnn12.Cl [Ponatinib]")
9.4

Which value of % Distribution in plasma has been reported for Cc1ccc(C(=O)Nc2ccc(C(=O)O)c(C(F)(F)F)c2)cc1C#Cc1cnc2cccnn12 [M23] in the records?
5.4

---

Assay Text: Metabolite profiling of plasma (HPLC-radiochromatography)
Format: in vivo, human
Assay Setup: 96 h pooled plasma, % of TRA
Below, each entry is listed with its recorded % Distribution in plasma.
Dear colleague, please return just the value in %, with no unit written.

Which value of % Distribution in plasma has been reported for Cc1ccc(C(=O)Nc2ccc(CN3CCN(C)CC3)c(C(F)(F)F)c2)cc1C#Cc1cnc2cccnn12.Cl [Ponatinib] in the records?
13.2

Which value of % Distribution in plasma has been reported for Cc1ccc(C(=O)Nc2ccc(C(=O)O)c(C(F)(F)F)c2)cc1C#Cc1cnc2cccnn12 [M23] in the records?
6.0

---

Below, each entry is listed with its recorded % Distribution in plasma.
Assay Text: Metabolite profiling of plasma (HPLC-radiochromatography)
Type: in vivo, human
Assay Setup: 72 h pooled plasma, % of TRA
Dear colleague, please return just the value in %, with no unit written.

>>> observed("Cc1ccc(C(=O)Nc2ccc(CN3CCN(C)CC3)c(C(F)(F)F)c2)cc1C#Cc1cnc2cccnn12.Cl")
12.8

Which value of % Distribution in plasma has been reported for Cc1ccc(C(=O)Nc2ccc(C(=O)O)c(C(F)(F)F)c2)cc1C#Cc1cnc2cccnn12 in the records?
10.7
